- Tested on: CCRIS mutagenicity, Ames/micronucleus/aberration tests
- Method Notes: CCRIS mutagenicity studies
- Setup Conditions: Test System: AMES SALMONELLA TYPHIMURIUM; Strain/Indicator: TA1538; Metabolic Activation: NONE; Method: STANDARD PLATE
Active and inactive are the calls of the source. No rule for the calls is given here.
Hi there, use one of these labels in your reply, thanks! active, inactive

Below are worked cases with known answers.
CNC(=O)Oc1ccccc1OC(C)C ... inactive
C/C=C1\CC2C=CC1C2 (stereo not given) ... inactive

(Q) Hi team, can someone confirm the assay call for "CCC(=O)N(c1ccc(Cl)c(Cl)c1)[C@@H]1CCC[C@H]1N(C)C" ?
(A) inactive

(Q) Thanks! And CN1CCC=C2c3nc(N)sc3CCC21 (stereo not given) ?
(A) inactive

(Q) Thanks! And CCCCCCC(CCCC)COc1ccc(-c2ccc(-c3ccc(-c4ccc(OCC(CCCC)CCCCCC)cc4)cc3)cc2)cc1 (stereo not given) ?
(A) inactive

(Q) Thanks! And "O=C1c2ccccc2CCc2ccccc21" ?
(A) inactive

(Q) Thanks! And "O=c1oc2ccc([N+](=O)[O-])cc2c2ccccc12" ?
(A) active

(Q) Thanks! And "C=CCc1ccc(O)cc1" ?
(A) inactive
